Target: Cytochrome P450 2C9 (Homo sapiens, UniProt P11712)
Sequence (P11712 whole entry): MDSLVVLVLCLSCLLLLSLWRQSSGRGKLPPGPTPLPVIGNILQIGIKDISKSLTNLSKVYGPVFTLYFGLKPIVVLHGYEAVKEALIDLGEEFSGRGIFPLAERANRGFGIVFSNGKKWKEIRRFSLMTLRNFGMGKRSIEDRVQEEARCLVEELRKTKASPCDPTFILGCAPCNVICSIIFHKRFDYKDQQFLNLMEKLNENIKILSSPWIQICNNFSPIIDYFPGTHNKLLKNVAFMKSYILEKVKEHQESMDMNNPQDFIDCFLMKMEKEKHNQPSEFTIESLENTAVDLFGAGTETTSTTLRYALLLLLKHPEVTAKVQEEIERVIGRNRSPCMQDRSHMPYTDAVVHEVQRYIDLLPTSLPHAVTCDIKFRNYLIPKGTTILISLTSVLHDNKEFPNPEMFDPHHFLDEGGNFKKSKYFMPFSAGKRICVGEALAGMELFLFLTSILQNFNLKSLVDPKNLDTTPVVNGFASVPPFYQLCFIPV
property label: AC50

Reference set, count: 3
COc1ccc2[nH]cc(CCNc3nc(-c4ccc(C(=O)N(C)C)cc4)nc4ccccc34)c2c1 ... 1 µM (inconclusive)
c1ccc(C(c2ccccc2)N2CC[C@@]3(CCCNC3)C2)cc1 ... 31.6 µM (inconclusive)
O=c1c(CCc2ccccc2)nc2cnc(Nc3ccccc3)nc2n1C[C@H]1CCCO1 ... 20 µM (inconclusive)

Quick one: AC50 of O=[N+]([O-])c1cccnc1N1CCOCC1 ?
12.6 µM (inconclusive)

Entry CC(Sc1nnc(C(C)N(C)C)n1-c1ccc(Cl)cc1)C(=O)Nc1ccc2c(c1)OCO2 (stereo not given) please
15.8 µM (inconclusive)

* * *

Target: Paired box protein Pax-8 (Homo sapiens, UniProt Q06710)
Sequence (Q06710 whole entry): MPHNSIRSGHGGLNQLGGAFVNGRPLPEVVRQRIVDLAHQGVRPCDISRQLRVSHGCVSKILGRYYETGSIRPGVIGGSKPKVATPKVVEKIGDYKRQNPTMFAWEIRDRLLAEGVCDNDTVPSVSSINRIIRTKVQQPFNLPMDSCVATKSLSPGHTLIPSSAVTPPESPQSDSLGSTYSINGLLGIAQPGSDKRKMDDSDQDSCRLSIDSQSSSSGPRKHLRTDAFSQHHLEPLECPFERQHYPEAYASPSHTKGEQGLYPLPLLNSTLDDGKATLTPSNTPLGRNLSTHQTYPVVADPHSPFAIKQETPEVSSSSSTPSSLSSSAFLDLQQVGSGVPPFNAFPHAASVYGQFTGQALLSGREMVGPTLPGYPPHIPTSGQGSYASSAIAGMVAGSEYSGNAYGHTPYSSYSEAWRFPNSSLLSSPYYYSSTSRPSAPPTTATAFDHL
Assay: PAX8 transcriptional activity inhibition in RMG-I – RMG-I cells, luciferase, cherry-pick, dose response (AID 687027);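 note: luciferase reporter driven by Pax8 target thyroperoxidase promoter measured by SteadyGlo luminescence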
Assay type: functional, cell-based
Calls of active or inactive are those of the source.
property label: AC50

Below: 5 compounds and their reported AC50.
COc1ccc(-c2ccc3c(c2)[C@H]2[C@H](CCN2S(=O)(=O)c2ccc(OC)cc2)[C@H](CO)N3C)cc1 ... 7.21 µM (active)
C[C@H](CO)N1C[C@H](C)[C@@H](CN(C)Cc2ccccc2)Oc2ccc(NC(=O)Nc3ccc(C(F)(F)F)cc3)cc2CC1=O ... 9.3 µM (active)
COc1cc2c(c(OC)c1OC)-c1ccc(SC)c(=O)cc1C(NC=O)CC2 (configuration not stated) ... < 0.26 µM (active)
C[C@@H]1CN([C@@H](C)CO)C(=O)c2cc(NC(=O)Nc3cccc4ccccc34)ccc2O[C@@H]1CN(C)Cc1ccc2c(c1)OCO2 ... 18.5 µM (active)
OCC1OC(n2cnc3c(NCc4ccco4)ncnc32)C(O)C1O (configuration not stated) ... 2.41 µM (active)

Identify the measured AC50 of CC(=O)OC(C)(C)/C=C/C(=O)C(C)(O)C1[C@H](O)C[C@@]2(C)C3CC=C4C(CC[C@@H](O)C4(C)C)[C@]3(CO)C(=O)C[C@]12C (some centres not stated) for Paired box protein Pax-8 (Homo sapiens, UniProt Q06710).
< 0.26 µM (active)

Follow-up item: CC(C)c1cc(C(=O)OCC(=O)N2CCN(C(=O)c3ccco3)CC2)c(O)c(C(C)C)c1
1.58 µM (active)

* * *

Molecular target: Cytochrome P450 2D6 (Homo sapiens)
Sequence (P10635 whole entry): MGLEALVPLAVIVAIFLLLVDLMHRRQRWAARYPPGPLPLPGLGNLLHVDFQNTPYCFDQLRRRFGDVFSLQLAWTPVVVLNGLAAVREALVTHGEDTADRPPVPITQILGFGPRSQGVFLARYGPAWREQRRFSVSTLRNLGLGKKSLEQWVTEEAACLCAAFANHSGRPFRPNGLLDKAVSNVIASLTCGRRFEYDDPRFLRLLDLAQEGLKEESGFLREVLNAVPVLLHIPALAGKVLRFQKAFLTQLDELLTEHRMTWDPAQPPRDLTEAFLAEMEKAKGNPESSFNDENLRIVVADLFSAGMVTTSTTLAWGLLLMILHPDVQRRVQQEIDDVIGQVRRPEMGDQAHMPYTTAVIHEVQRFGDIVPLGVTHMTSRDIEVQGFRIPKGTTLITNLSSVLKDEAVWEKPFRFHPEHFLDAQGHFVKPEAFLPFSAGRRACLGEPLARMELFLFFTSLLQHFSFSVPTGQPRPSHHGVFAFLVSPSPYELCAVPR
Item-by-item account of AC50

Some entries whose results are on file:
CCOc1ccc(CN(C(=O)c2oc3ccccc3c2C)C2CCS(=O)(=O)C2)cc1 (stereo unspecified) ... 14.1 µM (inconclusive)
Cc1ccccc1NC(=O)/C(=C/c1ccccc1)c1ccccc1 ... 14.1 µM (inconclusive)
Cc1ccccc1-c1nccc(NCCN2CCOCC2)n1 ... 31.6 µM (inconclusive)
Cc1cccc(CNc2ccnc(-c3cccc(NS(C)(=O)=O)c3)n2)c1 ... 39.8 µM (inconclusive)
COc1ccc(CN(CCC#N)C(=S)NC(=O)c2ccccc2)cc1 ... 25.1 µM (inconclusive)
CC(Sc1nc(NCc2ccccc2)nc(N(C)C)n1)C(=O)Nc1ccccc1 (stereo unspecified) ... 15.8 µM (inconclusive)
O=C(CSc1ccccn1)Nc1nc2ccc(Br)cc2s1 ... 15.8 µM (inconclusive)
Cc1cc(Cc2cc(Cc3cc(C)cc(C(C)(C)C)c3O)c(C)cc2C)c(O)c(C(C)(C)C)c1 ... 3.98 µM (inconclusive)
CC(=O)N1CCC2(CC1)CCN(c1cccc(-c3ccccc3)c1)CC2 ... 31.6 µM (inconclusive)
O=c1cnc2cncnc2n1Cc1ccccc1Cl ... 20 µM (inconclusive)

Hi! What's the reported AC50 for COc1ncc2nc(-c3cccs3)c(=O)n(Cc3cccs3)c2n1 on Cytochrome P450 2D6 (Homo sapiens)?
3.98 µM (inconclusive)

Lookup CCS(=O)(=O)N1CCC(C(=O)NCCCN2CCN(c3ccccc3F)CC2)CC1
15.8 µM (inconclusive)

* * *

System: H4
Assay: Luminescence Cell-Based Dose Response HTS to Identify Activators of 5'UTR Stem-Loop Driven Prion Protein mRNA Translation in H4 Neuroglioblastoma Cells. [Related pubchem assays: 1829 (Project Summary), 1814 (Primary HTS)]
Type: functional
Details: Homo sapiens
The source made the active and inactive calls.
property label: EC50

Cc1ccsc1C1Nc2ccccc2-c2nc3ccccc3n21 (centres undefined) ... 26.1 µM (active)
CC1CCCCN1C(=O)CSc1nc2ccsc2c(=O)n1Cc1ccccn1 (centres undefined) ... 9.84 µM (active)
Cc1ccc(C(=O)NC(=S)NCC2CCCO2)cc1Br (centres undefined) ... 45.5 µM (active)

Now look at this one.
Reported EC50 for CCOC(=O)N1CCN(C(=O)CCNS(=O)(=O)c2ccc3c(c2)c(=O)n(C)c(=O)n3C)CC1 : what is it?
> 120 µM (not active)

* * *

Test: NIH3T3 cell viability loss – ATP luminescence, mouse fibroblasts, counter-screen, dose response (AID 2010);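 note: cells exposed to compound for about 90 hours before reading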
Format: functional, cell-based
Activity calls are given as the source filed them.
property label: EC50

O=C(Nc1ccccc1-c1nnc(SCc2ccc(Cl)cc2)o1)c1ccccc1 ... > 60 µM (not active)

Can you look up the measured EC50 of CCSC1=NC2(CCCCC2)Nc2sc3c(c21)CCCC3 for me?
20.6 µM (active)

What do you get for Cc1ccc(NC(=O)C2CC2C)cc1S(=O)(=O)N1CCOCC1 (centres undefined) ?
> 30 µM (not active)

Now the same for COc1ccc(C2CC(c3ccc(Br)cc3)=NN2C(=O)CSC2=NN3CCCC(=O)N=C3S2)cc1 (centres undefined)
> 60 µM (not active)

* * *

Biological target: Streptokinase A (Streptococcus pyogenes serotype M1, UniProt P10520)
Sequence (P10520 whole entry): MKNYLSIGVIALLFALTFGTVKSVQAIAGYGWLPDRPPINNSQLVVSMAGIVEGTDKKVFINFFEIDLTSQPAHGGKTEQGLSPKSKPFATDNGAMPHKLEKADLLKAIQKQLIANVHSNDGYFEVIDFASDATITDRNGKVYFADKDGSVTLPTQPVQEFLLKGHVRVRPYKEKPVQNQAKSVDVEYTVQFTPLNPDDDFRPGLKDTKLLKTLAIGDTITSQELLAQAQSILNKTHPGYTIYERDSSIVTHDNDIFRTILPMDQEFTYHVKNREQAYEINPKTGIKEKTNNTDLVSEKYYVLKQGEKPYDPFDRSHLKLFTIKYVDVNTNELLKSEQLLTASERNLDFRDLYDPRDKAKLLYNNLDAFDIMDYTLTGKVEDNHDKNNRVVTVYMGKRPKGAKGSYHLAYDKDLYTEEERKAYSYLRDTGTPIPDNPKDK
Experiment: viability-normalized secreted streptokinase activity reduction – plasminogen activation absorbance, OD405, dose response (AID 1914);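 note: secreted streptokinase activity via plasminogen activation per viability signal from cell pellet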
Format: functional, Streptococcus pyogenes M1 GAS
The reader will find reported EC50 values listed item by item below.

CC(=O)Nc1ccc(C2C(=O)c3ccccc3C2=O)cc1 ... > 150 µM (not active)
Cc1cc(C)cc(C(=O)N2CCC(CCC(=O)NC3CC3)CC2)c1 ... > 150 µM (not active)
CCc1ccc(CNc2ccc3c(c2)ncn3C(C)(C)C)cc1 ... > 150 µM (not active)

Lab note: next compound to report on.
Give the measured EC50 of CO/C(O)=C1\C(C)=NC2=C(C(=O)c3ccccc32)C1c1ccc(-c2ccc(C(=O)O)cc2)o1 (stereo not drawn) .
> 150 µM (not active)

* * *

Cytochrome P450 2D6 (Homo sapiens): recorded AC50 for assorted compounds;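 note: CYP2D6 member of a cytochrome P450 panel assay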

The cases that follow already have their AC50 on record.
Cc1c2cccc(Sc3ccccc3)c2c2c3c(cccc13)[S+](c1ccccc1)C2 (centres undefined) ... 5.01 µM (inconclusive)
Cc1ccccc1-c1cc(Nc2ccc(F)cc2)ncn1 ... 31.6 µM (inconclusive)
COc1ccc2[nH]cc(CCNc3nc(-c4ccc(C(=O)N(C)C)cc4)nc4ccccc34)c2c1 ... 20 µM (inconclusive)

Give the measured AC50 of O=C(c1ccncc1)N1CCC2(CC1)CN(c1ncccn1)C2 .
20 µM (inconclusive)

* * *

Target: Streptokinase A (Streptococcus pyogenes serotype M1, UniProt P10520)
Assay: viability-normalized secreted streptokinase activity reduction – plasminogen activation absorbance, OD405, dose response (AID 1914);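 note: secreted streptokinase activity via plasminogen activation per viability signal from cell pellet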
Format: functional, Streptococcus pyogenes M1 GAS
Activity calls are given as the source filed them.
property label: EC50

Check out these entries, answers already filled in.
Cc1nc(N2CCN(c3ccccc3O)CC2)c2c(-c3ccccc3)csc2n1 ... 34.4 µM (active)
O=S(=O)(Cc1nnnn1-c1ccccc1)c1ccc(F)cc1 ... > 150 µM (not active)
O=C(NC(=S)NNC(=O)c1cccs1)c1ccco1 ... > 150 µM (not active)
CSc1nc(SCC(=O)O)c2sc3nc(-c4ccccc4)c4c(c3c2n1)CCC4 ... 7.33 µM (active)
COc1ccccc1Sc1nc(-c2ccccn2)ncc1OC ... > 150 µM (not active)
COc1ccc(N(CC(=O)NCCSCc2cccc(Cl)c2)S(C)(=O)=O)cc1Cl ... 23.2 µM (active)

Find the recorded EC50 belonging to COC(=O)c1ccc(Oc2nc3ccccc3n3c(C)nnc23)cc1 and report it.
> 150 µM (not active)

How about this compound: COc1ccc2ccc3c(c2c1)N=C[C@]1(O3)N(C)c2ccccc2C1(C)C
3.17 µM (active)

Input CC(Oc1ccc(F)cc1)C(=O)Nc1ccccc1N1CCCCC1 (centres undefined)
10.3 µM (active)
